tested on: K562 CRISPRi cells; assay: Constant region variant library pooled growth screen, K562; assay type: cell-based, human; settings: sgRNA constant region variants; activity relative to the original, un-modified constant region cr995
Would you mind telling me the reported Mean relative activity of each entry?
Answer with a number only.

-- ask Request the reported Mean relative activity associated with cr112 (nucleic acid, listed as DNA, chemistry not fully specified) guide: GTTTAAGAGCTAAGCTGGAAACAGCATAGCAAGTTTAAATAAAGTTAATCTGTTATCAATTTGAAAAAATGGCACCGAGTCGGTGCT
-- reply 0.0933

-- ask And the next one, cr714 (nucleic acid, listed as DNA, chemistry not fully specified) guide: GTTTAAGAGCTAAGCTGGAAACAGCATAGCAAGCTTAAATAAGGCTAGTCCGTTATCAAATTGAAAAATTGGCACCGAGTCGGTGCT ?
-- reply 0.09294

-- ask What about cr086 (nucleic acid, listed as DNA, chemistry not fully specified) guide: GTTTACTAGCTAAGCTGGAAACAGCATAGCAAGTTTAAATAAGGCTAGTCCGTTATCAACTTGAAAAAGTGGCACCGAGTCGGTGCT ?
-- reply 0.614

-- ask Could you do the same for cr479 (nucleic acid, listed as DNA, chemistry not fully specified) guide: GTTTAAGAGCTAAGCTGGAAACAGCATAGCAAGTTTAAATAAGGCTAGTCCGTTATCAAGTTGAAAAACTGGGACCCAGTGGGTCCT , please?
-- reply 0.5994

-- ask Would you kindly repeat that for cr579 (nucleic acid, listed as DNA, chemistry not fully specified) guide: GTTTAAGAGCTAAGCTGGAAACAGCATAGCAAGTTTAAATAAGGCTAGTCCCATATCAACTTGAAAAAGTGGCACCGAGTCGGTGCT ?
-- reply −0.000418

-- ask Would you mind doing cr727 (nucleic acid, listed as DNA, chemistry not fully specified) guide: GTTTAAGAGCTAAGCTGGAAACAGCATAGCAAGTTTAAATAAGGCTAGTCCGTTATCAACTTGAAAAAGTGTCGCCGAGTCGGCGAT as well?
-- reply 1.037

-- ask Also cr171 (nucleic acid, listed as DNA, chemistry not fully specified) guide: GTTTAAGAGCTAAGCTGGAAACAGCATAGCAAGTTTAAATAAGGCTAGTCCGTTATCAACCTGAGAAGGTGGCACCGAGTCGGTGCT , if possible.
-- reply 1.044
